reported.endpoint: melting point

Consider the reported melting point for these compounds:
- compound: "CN1C(=NC2CCCCC2)SCC1CC(=O)Nc1ccc2c(c1)OCO2.Cl (stereo not shown) (hydrate or solvate)"
  melting point: "146 to 147 °C"
- compound: "CC1SC(=NC2CCCC2)N(C)C1CC(=O)Nc1ccc(Cl)cc1.Cl (stereo not shown)"
  melting point: "201 to 203 °C"
- compound: "CN1C(=NC2CCCC2)SCC1CC(=O)Nc1ccc(Cl)cc1F.Cl (stereo not shown)"
  melting point: "228 to 230.5 °C"
- compound: "CC(C)c1ccc(NC(=O)CC2C(C)SC(=NC3CCCCC3)N2C)cc1.Cl (stereo not shown)"
  melting point: "265 to 267 °C"
- compound: "CN1C(=NC2CC2)SCC1CC(=O)Nc1ccc(Cl)cc1F.Cl (stereo not shown)"
  melting point: "237 to 237.5 °C"
- compound: "CC1SC(=NC2CCCCCC2)N(C)C1CC(=O)Nc1ccc(C(C)(C)C)cc1.Cl (stereo not shown)"
  melting point: "239 to 241 °C"

Entry under review: COc1ccc(CNC(=O)CC2CSC(=NC3CCCCC3)N2C)cc1.Cl (stereo not shown) . Reported melting point?
193 to 195 °C

Continue with Cc1ccc(NC(=O)C2CSC(=NC3CCCCCC3)N2C)cc1.Cl (stereo not shown)
202.1 °C

Similarly, CN1C(=NC2CCCC2)SCC1CC(=O)Nc1cc([N+](=O)[O-])ccc1F.Cl (stereo not shown) ?
234.5 to 236 °C

CC1SC(=NC2CCCCCC2)N(C)C1CC(=O)Nc1ccc(C(F)(F)F)cc1.Cl (stereo not shown) , same question.
261 to 263 °C

Repeat with CC(C)c1ccc(NC(=O)CC2CSC(=NC3CC3)N2C)cc1.Cl (stereo not shown)
238 to 238.5 °C

Now consider Cc1ccc(NC(=O)CC2C(C)SC(=NC3CCCCCC3)N2C)cc1.Cl (stereo not shown) .
248 to 250 °C

Please do the same for Cc1ccc(N=C2SCC(CC(=O)Nc3ccc(Cl)cc3F)N2C)cc1.Cl (stereo not shown) as well.
243 to 245 °C

// query: Cc1ccccc1CNC(=O)CC1CSC(=NC2CCCCC2)N1C.Cl (stereo not shown)
220 to 221 °C

Try CN1C(=NC2CCCC2)SCC1CC(=O)NCc1ccc(F)cc1.Cl (stereo not shown) next.
160.5 to 162 °C

Also check CN1C(=NC2CCCC2)SCC1CC(=O)Nc1ccc(CC#N)cc1.Cl (stereo not shown)
199.5 to 200 °C

Repeat for the following compound: CN1C(=NC2CC2)SCC1CC(=O)Nc1ccc(F)cc1F.Cl (stereo not shown)
245 to 246 °C

Now consider CN1C(=NC2CC2)SCC1CC(=O)Nc1cc(Cl)ccc1F.Cl (stereo not shown) and answer again.
233.5 to 234.5 °C

Lookup Cc1ccc(NC(=O)CC2CSC(=NC3CC3)N2C)c(F)c1.Cl (stereo not shown)
199.5 to 200.5 °C

Reference source: patent US7998989B2
